target: α4β7 integrin (Homo sapiens (Human), UniProt P13612+P26010); experiment: α4β7 Integrin Cell Capture Assay; format: cell-based; conditions: Table 2; capture of α4β7 expressing RPM18866 cells on MadCAM-1 extracellular domain-coated plate
Sequence (P13612 34-1032): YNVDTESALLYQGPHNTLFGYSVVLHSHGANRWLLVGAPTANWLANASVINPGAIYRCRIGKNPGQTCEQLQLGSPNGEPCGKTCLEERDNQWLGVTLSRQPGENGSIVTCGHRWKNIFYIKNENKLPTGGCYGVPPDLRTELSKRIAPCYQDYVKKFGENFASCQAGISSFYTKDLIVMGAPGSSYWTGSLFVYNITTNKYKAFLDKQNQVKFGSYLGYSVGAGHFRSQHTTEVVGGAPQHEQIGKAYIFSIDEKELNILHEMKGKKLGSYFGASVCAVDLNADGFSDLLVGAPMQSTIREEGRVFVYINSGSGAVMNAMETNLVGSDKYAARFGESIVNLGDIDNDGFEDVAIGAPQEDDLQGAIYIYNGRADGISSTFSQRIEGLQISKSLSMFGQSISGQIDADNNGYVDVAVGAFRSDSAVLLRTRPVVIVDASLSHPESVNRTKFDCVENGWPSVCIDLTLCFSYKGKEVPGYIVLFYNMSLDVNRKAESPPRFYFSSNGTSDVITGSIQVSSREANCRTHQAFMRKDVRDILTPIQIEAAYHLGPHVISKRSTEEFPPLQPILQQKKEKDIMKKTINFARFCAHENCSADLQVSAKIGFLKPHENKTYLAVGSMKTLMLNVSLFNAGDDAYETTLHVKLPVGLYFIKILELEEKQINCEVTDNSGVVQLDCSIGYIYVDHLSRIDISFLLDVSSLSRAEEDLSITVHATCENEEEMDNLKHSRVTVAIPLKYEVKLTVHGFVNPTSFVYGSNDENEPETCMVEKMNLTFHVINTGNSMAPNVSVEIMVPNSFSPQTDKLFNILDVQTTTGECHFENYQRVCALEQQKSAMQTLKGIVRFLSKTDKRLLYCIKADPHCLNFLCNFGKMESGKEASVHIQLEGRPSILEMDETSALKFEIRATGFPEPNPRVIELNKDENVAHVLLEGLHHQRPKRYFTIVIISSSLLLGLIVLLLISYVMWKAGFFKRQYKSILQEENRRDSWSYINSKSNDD
Sequence (P26010 20-798): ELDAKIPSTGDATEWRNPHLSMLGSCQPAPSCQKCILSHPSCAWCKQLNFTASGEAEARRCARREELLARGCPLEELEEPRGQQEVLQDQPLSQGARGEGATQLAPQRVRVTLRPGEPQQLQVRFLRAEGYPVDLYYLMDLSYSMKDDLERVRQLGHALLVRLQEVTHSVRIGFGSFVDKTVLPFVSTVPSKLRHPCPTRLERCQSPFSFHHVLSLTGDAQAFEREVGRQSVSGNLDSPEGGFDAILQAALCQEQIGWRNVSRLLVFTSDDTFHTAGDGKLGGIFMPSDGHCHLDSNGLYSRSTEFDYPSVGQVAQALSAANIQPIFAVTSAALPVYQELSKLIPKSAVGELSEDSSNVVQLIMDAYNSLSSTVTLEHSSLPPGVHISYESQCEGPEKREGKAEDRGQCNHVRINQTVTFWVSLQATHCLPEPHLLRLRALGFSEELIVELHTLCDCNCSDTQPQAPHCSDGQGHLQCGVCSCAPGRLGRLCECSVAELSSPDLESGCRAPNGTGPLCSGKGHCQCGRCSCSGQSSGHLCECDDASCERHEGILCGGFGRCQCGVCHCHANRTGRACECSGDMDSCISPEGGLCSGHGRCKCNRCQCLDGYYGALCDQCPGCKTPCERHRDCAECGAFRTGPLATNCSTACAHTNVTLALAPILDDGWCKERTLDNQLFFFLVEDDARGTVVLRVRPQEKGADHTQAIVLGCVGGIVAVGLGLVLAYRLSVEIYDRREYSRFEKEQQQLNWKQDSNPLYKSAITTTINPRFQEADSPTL
pEC50: −log10 of the molar value.
# binarize pEC50: threshold 8 inclusive, high side TRUE, low side FALSE

compound: Cc1cc(C)n(C)c(=O)c1-c1ccc(C[C@H](NC(=O)c2c(F)cc(N[C@H](C3CC3)C(F)(F)F)cc2F)C(=O)O)c2cccnc12 [Example 342]
assigned label: TRUE
--
compound: N#Cc1ccc(-c2ccc(C[C@H](NC(=O)c3c(F)cc(N4CCC(F)(F)CC4)cc3F)C(=O)O)c3cccnc23)c(Cl)c1 [Example 220]
assigned label: FALSE
--
compound: CC[C@@H](Nc1cc(F)c(C(=O)N[C@@H](Cc2ccc(-c3nccc(C)c3C(F)(F)F)c3ncccc23)C(=O)O)c(F)c1)C(F)(F)F [Example 252]
assigned label: TRUE
--
compound: CC[C@@H](Nc1cc(F)c(C(=O)N[C@@H](Cc2ccc(-c3c(C)c(N(C)C)cn(C)c3=O)c3ncccc23)C(=O)O)c(F)c1)C(F)(F)F [Example 287]
assigned label: TRUE
--
compound: CC[C@@H](Nc1cc(F)c(C(=O)N[C@@H](Cc2ccc(-c3c(C(F)(F)F)cc(F)c4cccnc34)c3ncccc23)C(=O)O)c(F)c1)C(F)(F)F [Example 256]
assigned label: TRUE
--
compound: CC[C@@H](Nc1cc(F)c(C(=O)N[C@@H](Cc2ccc(-c3ncc(C)cc3Cl)c3ncccc23)C(=O)O)c(F)c1)C(F)(F)F [Example 327]
assigned label: FALSE
--
compound: N#Cc1ccc(-c2ccc(C[C@H](NC(=O)c3c(F)cc(C(=O)N[C@H]4C[C@@H](O)C4)cc3F)C(=O)O)c3cccnc23)c(Cl)c1 [Example 267]
assigned label: FALSE
--
compound: CCOCc1cc(OC)c(-c2ccc(C[C@H](NC(=O)c3c(F)cc(N[C@H](CC)C(F)(F)F)cc3F)C(=O)O)c3cccnc23)c(OC)c1 [Example 201]
assigned label: TRUE
--
compound: CCOCc1cc(OC)c(-c2ccc(C[C@H](NC(=O)c3c(Cl)cc4[nH]ccc4c3Cl)C(=O)O)c3cccnc23)c(OC)c1 [Example 235]
assigned label: TRUE
--
compound: Cc1c(-c2ccc(C[C@H](NC(=O)c3c(F)cc(N4CCS(=O)(=O)[C@H](C)C4)cc3F)C(=O)O)c3cccnc23)c(=O)n(C)c(=O)n1C [Example 237]
assigned label: TRUE
--
compound: CC[C@@H](Nc1cc(F)c(C(=O)N[C@@H](Cc2ccc(-c3cc4ccccc4n(C)c3=O)c3ncccc23)C(=O)O)c(F)c1)C(F)(F)F [Example 182]
assigned label: TRUE
--
compound: N#Cc1ccc(-c2ccc(C[C@H](NC(=O)c3c(F)cc(C(=O)NC4CC4)cc3F)C(=O)O)c3cccnc23)c(Cl)c1 [Example 197]
assigned label: FALSE
--
compound: N#Cc1ccc(-c2ccc(C[C@H](NC(=O)c3c(F)cc(N[C@H](c4ccc(F)cc4)C(F)(F)F)cc3F)C(=O)O)c3cccnc23)c(Cl)c1 [Example 331]
assigned label: FALSE
--
compound: O=C(N[C@@H](Cc1ccc(-c2nccc(OC3CC3)c2C(F)(F)F)c2ncccc12)C(=O)O)c1c(F)cc(N2CCOC[C@@H]2C(F)(F)F)cc1F [Example 233]
assigned label: TRUE
--
compound: CCOCc1cc(OC)c(-c2ccc(C[C@H](NC(=O)c3c(Cl)cc4cc[nH]c4c3Cl)C(=O)O)c3cccnc23)c(OC)c1 [Example 219]
assigned label: TRUE
--
compound: N#Cc1ccc(-c2ccc(C[C@H](NC(=O)c3c(F)cc(NCC(F)(F)F)cc3F)C(=O)O)c3cccnc23)c(Cl)c1 [Example 332]
assigned label: FALSE
--
compound: O=C(N[C@@H](Cc1ccc(-c2c(Cl)cc(F)cc2OC(F)F)c2ncccc12)C(=O)O)c1c(F)cccc1F [Example 149]
assigned label: FALSE
--
compound: CC[C@@H](Nc1cc(F)c(C(=O)N[C@@H](Cc2ccc(-c3c(C(F)(F)F)cc(C)n(C)c3=O)c3nc(C(F)(F)F)ccc23)C(=O)O)c(F)c1)C(F)(F)F [Example 269]
assigned label: TRUE
--
compound: CC[C@@H](Nc1cc(F)c(C(=O)N[C@@H](Cc2ccc(-c3c(C(F)(F)F)c4cc(N(C)C)ccc4n(C)c3=O)c3ncccc23)C(=O)O)c(F)c1)C(F)(F)F (atropisomer, axis not shown) [Example 168]
assigned label: TRUE
